- Study Target: Grb2 SH2 (UniProt P62993)
- Sequence (P62993 whole entry, looked up, the tested form may be a part): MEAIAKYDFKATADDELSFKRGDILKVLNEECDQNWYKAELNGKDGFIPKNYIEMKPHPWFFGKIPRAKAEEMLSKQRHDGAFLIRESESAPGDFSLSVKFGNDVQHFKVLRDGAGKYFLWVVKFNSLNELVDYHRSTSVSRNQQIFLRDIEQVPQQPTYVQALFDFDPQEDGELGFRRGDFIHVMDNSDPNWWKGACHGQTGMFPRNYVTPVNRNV
- Measurement Protocol: SH2 binding enrichment of the phosphorylated peptide, bacterial display (enrichment ratio); higher = better substrate or ligand; peptides without Tyr show the background;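 also: peptide library displayed on the E. coli surface as eCPX fusions, selected cells deep-sequenced, score is each peptide's frequency after selection divided by its frequency in the input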
Lab note: anything with SH2 binding enrichment at or over 0.9 counts as rule met; the rest go in rule not met.

Kindly determine if SH2 binding enrichment recorded for QDEHGYIFRCF [HSPB1_Y133_S135F] is above or exactly 0.9. rule not met

Determine whether measured SH2 binding enrichment meets or exceeds 0.9 for NVFGNYNNQSS [HNRNPA1_Y318_D314V] rule not met

Identify whether the reported SH2 binding enrichment of the following sequence is 0.9 or greater: LRWREYQRQDF [PRKRIP1_Y90_R87W_YF] rule met

// inclusive: SH2 binding enrichment at least 0.9? input: VDEVLYEDSST [MTHFS_Y197] rule not met

Record TNGFTYGSSHQ [MANEA_Y331] ; criterion: SH2 binding enrichment no lower than 0.9. Met? rule not met

Exam item: decide whether the reported SH2 binding enrichment for IGCHAYGDQFR [IDH1_Y135_R132C_YF] is at least 0.9. rule not met

Is the recorded value of SH2 binding enrichment equal to or greater than 0.9 for this sequence? VFGVSYDEYRY [CFTR_Y512_I507V] rule not met

Entry SSYDTYHLSRE [KIR3DL2_Y253_I252T] : is its SH2 binding enrichment no less than 0.9? rule not met

Quick check: does HEGKIYEYNQV [ZNF665_Y162] have SH2 binding enrichment greater than or equal to 0.9? rule met

Dear colleague, could you confirm whether QLHRKYCLSPR [HJURP_Y445_E444K] has SH2 binding enrichment at or above 0.9? rule met

Decide: SH2 binding enrichment of LENSTYQYIRV [CRB1_Y760] >= 0.9? rule met

Is reported SH2 binding enrichment greater than or equal to 0.9 here: VVQGLYKSMPK [KBTBD2_Y250] rule not met

Does the sequence TTKGSYSLFVR [HCK_Y180_S183Y_YF] have recorded SH2 binding enrichment that is 0.9 or more? rule met

Quick check: does DDPRRYQKYGY [OAS1_Y362] have SH2 binding enrichment greater than or equal to 0.9? rule met

I'd appreciate it if you could say whether HRGHLYLAIEY [TEK_Y899_Y897H] has SH2 binding enrichment at least equal to 0.9. rule met

Would you say FQQLFYLLQTN [IQGAP2_Y890_YF] shows SH2 binding enrichment at minimum 0.9? rule met

Does the sequence VGNPAYRSFSN [IL4R_Y497_A492V] have recorded SH2 binding enrichment that is 0.9 or more? rule not met

Say whether LLVVVYKYRCY [PSEN1_Y154_L153V] shows SH2 binding enrichment of 0.9 or more. rule met

# check: SH2 binding enrichment of ITLPIYTKGSE [ANK2_Y1455_E1458G] is greater than or equal to 0.9 rule not met

Hello, I need to know if FSIDHYLGKEM [G6PD_Y202_R198S_YF] has measured SH2 binding enrichment not below 0.9. Thanks! rule not met

Kindly determine if SH2 binding enrichment recorded for PEFVVYKPQME [CCRL2_Y170] is above or exactly 0.9. rule met

I'd appreciate it if you could say whether IHADIYRWFNI [MARS1_Y344] has SH2 binding enrichment at least equal to 0.9. rule met

Exam item: decide whether the reported SH2 binding enrichment for QGCGIYKDYYR [PLA2G2D_Y82_S80G] is at least 0.9. rule met

Does the reported SH2 binding enrichment for RRVPVYGGRGA [QDPR_Y16_L14P] fall at or above the 0.9 mark? rule not met

Is SH2 binding enrichment at least 0.9? Consider DLRGIYQKLVI rule met

Confirm if SH2 binding enrichment reported for the sequence CTTIHYNNMCN [TP53_Y234_Y236N] is 0.9 or above. rule met

Item PRAGVYPEKDQ [DNM2_Y626_L621P] with SH2 binding enrichment of 0.9 or above? rule not met

Does the sequence RRGMPYGGCGD [TGM1_Y312_R315C] have recorded SH2 binding enrichment that is 0.9 or more? rule not met

Textbook exercise: given the entry TQNGVYSAANY [DDX5_Y535] , state whether its SH2 binding enrichment is greater than or equal to 0.9. rule not met

Hello, I need to know if NYCPGYNNFYN [USH2A_Y467_R464C] has measured SH2 binding enrichment not below 0.9. Thanks! rule met

Entry THEVRYVSAGQ [SLCO4A1_Y77] : is its SH2 binding enrichment no less than 0.9? rule not met

Does SH2 binding enrichment meet or surpass 0.9 for MKALGYFAVVT [OPA1_Y498] ? rule not met

Is reported SH2 binding enrichment greater than or equal to 0.9 here: TARREYMHSPS [CPOX_Y429_W427R] rule not met

Check the entry DTLASYLDKVR [KRT12_Y139_R135T] : does SH2 binding enrichment equal or exceed 0.9? rule met

# bool: SH2 binding enrichment of VKKKLDEEIDQ [CYP17A1_Y329_Y329D] >= 0.9 rule met

Textbook exercise: given the entry KYVKMYDNHQL [MYO9A_Y203] , state whether its SH2 binding enrichment is greater than or equal to 0.9. rule not met

Quick check, SH2 binding enrichment >= 0.9? ELPEKYSQNIF [PKP2_Y626_YF] rule not met

Confirm if SH2 binding enrichment reported for the sequence KVDKEYEVGVR [GHR_Y226_R229G] is 0.9 or above. rule not met
